# System: TK-10
# Assay Remarks: NCI60 one-dose screen
# Assay type: cell-based
# Protocol Conditions: Homo sapiens; TK-10, 10 μM; read-out: Growth percent
Kindly state activity at 10 µM for each of the entries shown.
Give bare numbers, in %.

Recorded activity at 10 µM, per entry:
| Compound | Observed Result |
| --- | --- |
| COc1ccc([P+](CCCCOc2cc(O)c3c(=O)cc(-c4ccccc4)oc3c2)(c2ccc(OC)cc2)c2ccc(OC)cc2)cc1 [3c] | -87.1 |
| Cc1ccc([P+](CCCCOc2cc(O)c3c(=O)cc(-c4ccccc4)oc3c2)(c2ccc(C)cc2)c2ccc(C)cc2)cc1 [3b] | -79.3 |
| O=c1cc(-c2ccccc2)oc2cc(O)cc(O)c12 [compound 2, 5,7-dihydroxyflavone, reference compound] | 107 |
| O=c1cc(-c2ccccc2)oc2cc(OCCCC[P+](C3CCCCC3)(C3CCCCC3)C3CCCCC3)cc(O)c12 [3e] | -91.3 |

Provide activity at 10 µM for all items below, preserving their order.
1. O=c1cc(-c2ccccc2)oc2cc(OCCCC[P+](c3ccccc3)(c3ccccc3)c3ccccc3)cc(O)c12 [3a]
2. Cc1ccccc1[P+](CCCCOc1cc(O)c2c(=O)cc(-c3ccccc3)oc2c1)(c1ccccc1C)c1ccccc1C [3g]
3. COc1c(C)cc([P+](CCCCOc2cc(O)c3c(=O)cc(-c4ccccc4)oc3c2)(c2cc(C)c(OC)c(C)c2)c2cc(C)c(OC)c(C)c2)cc1C [3f]
4. O=c1cc(-c2ccccc2)oc2cc(OCCCC[P+](c3ccc(F)cc3)(c3ccc(F)cc3)c3ccc(F)cc3)cc(O)c12 [3d]
5. O=c1cc(-c2ccccc2)oc2cc(OCCCC[P+](c3ccccc3)(c3ccccc3)c3ccccn3)cc(O)c12 [3h]

1: -81.8; 2: -99.3; 3: -84.7; 4: -84.8; 5: -93.3
